- tested system: cynomolgus monkey (cyno) TIGIT protein (cynomolgus monkey, UniProt A0A7N9I9V4 89-209)
- Sequence (A0A7N9I9V4 entry or part of it): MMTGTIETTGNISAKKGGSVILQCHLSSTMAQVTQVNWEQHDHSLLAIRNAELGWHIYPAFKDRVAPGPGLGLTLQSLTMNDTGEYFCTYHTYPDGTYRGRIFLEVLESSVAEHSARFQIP
- measurement description: SPR, captured mAb
measured quantity: koff (s⁻¹)
Lab book: enter the figure in s⁻¹, no units written.

Please review the entries below; each comes with its answer.
[[record]]
binder = "h15C8.L5aH9a (antibody, V domains shown, Final humanized 15C8; keeps rat VH I47, L37, A67, T71 and VL Y71; FR/HVR pieces) VH: EVQLVQSGAEVKKPGASVKVSCKASGYTFTEHSIYWLRQAPGQRLEIMGRIDPKNGRTYFVDKFKNRATITTDTSASTAYMELSSLRSEDTAVYYCARIDGFYFDFWGQGTLVTVSS VL: DIQLTQSPSFLSASVGDRVTITCKGSQNVNKYLVWYQQKPGKAPKLLIYSTDNLQSGVPSRFSGSGSGTEYTLTISSLQPEDFATYYCYQYNNGFTFGQGTKVEIK"
numeric_value = 0.000613

[[record]]
binder = "h7E7.L1H5 (antibody, V domains shown, VH: L69I (printed L691) against h7E7.L1H1; FR/HVR pieces) VH: EVQLVQSGAEVKKPGASVKVSCKASGYTFTEYSIYWVRQAPGQRLEIIGRIDPKNGRTYYVDKFKNRATITADTSASTAYMELSSLRSEDTAVYFCTRIYGFYFDFWGQGTLVTVSS VL: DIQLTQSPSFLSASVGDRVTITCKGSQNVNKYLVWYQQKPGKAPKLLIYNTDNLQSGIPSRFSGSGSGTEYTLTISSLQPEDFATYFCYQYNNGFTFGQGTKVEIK"
numeric_value = 0.000359

[[record]]
binder = "h10A5.L4H4 (antibody, V domains shown, Fully humanized version; FR/HVR pieces in order) VH: EVTLKESGPALVKPTQTLTLTCTFSGFSLTTYGMGVSWIRQPPGKALEWLASIWWNGNTYYNPSLRSRLTITKDTSKNQVVLTMTNMDPVDTATYYCAHTGGAVITWFAYWGQGTLVTVSS VL: EIVMTQSPATLSVSPGERATLSCKASQSVGKNIAWYQQKPGQAPRLLIYYASNRYTGIPARFSGSGSGTEFTLTISSLQSEDFAVYYCQHIYNSPYPFGQGTKVEIK"
numeric_value = 0.00129


Kindly review the next binder as well.
## Task Which koff is listed for rat6B2 (antibody, V domains shown, SD rat-derived; rat V domains as FR/HVR pieces; also called 1.6B2; Chimeric 1.6B2) VH: QVSLKESGPGILQPSHTLSLTCSFSGFSLSTYGMGVSWIRQPSEKGLEWLASIWWNGNTYYNPSLKSRLTVSKDASNDQAFLNVTSVDTTDTATYYCAHTGGAVITWFAYWGQGTLVTVSS VL: NIVMTQSPKSMSISVGDRVTMNCKASQSVGKNIAWYQQKPGQSPKLLIYYASNRYTGVPDRFTGGGSGTDFTLTINTVQAEDAAFFYCQHIYNSPYPFGTGTKLEIK ?
## Result 0.000202

Where these numbers come from: patent US20220064286A1
